# self-cleavage per entry
B1: HDV Ribozyme (parent)
chain: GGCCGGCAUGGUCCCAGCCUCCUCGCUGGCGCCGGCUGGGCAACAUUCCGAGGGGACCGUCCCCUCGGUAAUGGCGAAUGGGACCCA

- Variants of: B1
- ASSAY: self-cleavage, relative activity (ratio to wild type); higher = more cleavage; co-transcriptional

- QUERY SEQUENCE: "GGCCGGCAUGGUCCCAGCCUCCUCGCUGGCGCCGGCUGGACAACAUUCCGAGGGGACCGUCCCCUCGGUAAUGGCGAGUGGGACCCA [G40A A78G]"
  MEASUREMENT KIND: "self-cleavage"
  RESULT: 0.795
- QUERY SEQUENCE: "GGCCGGCAUGGUCCCAGCCUCCUCGCUGGCGCCGGCUGGGCAACCUUCCAAGGGGACCGUCCCCUCGGUAAUGGCGAAUGGGACCCA [A45C G50A]"
  MEASUREMENT KIND: "self-cleavage"
  RESULT: 0.785
- QUERY SEQUENCE: "GGCCGGCAGGGUCCCAGCCUCCUCGCUGGCGCCGGCUGGGCAACAUUCCGAGGGGACCGUCCCCUCGGUAAUGGUGAAUGGGACCCA [U9G C75U]"
  MEASUREMENT KIND: "self-cleavage"
  RESULT: 0.222
- QUERY SEQUENCE: "GGCCGGCAUGGUCCCAUCCUCCUCGCUGGCGCCGGCUGUGCAACAUUCCGAGGGGACCGUCCCCUCGGUAAUGGCGAAUGGGACCCA [G17U G39U]"
  MEASUREMENT KIND: "self-cleavage"
  RESULT: 0.126
- QUERY SEQUENCE: "GGCCCGGAUGGUCCCAGCCUCCUCGCUGGCGCCGGCUGGGCAACAUUCCGAGGGGACCGUCCCCUCGGUAAUGGCGAAUGGGACCCA [G5C C7G]"
  MEASUREMENT KIND: "self-cleavage"
  RESULT: 0

## Task So what does the record say about self-cleavage for GGCCGGCAUGGUCCCAGCCUCCUCGCUGGCGCCGGCUGGGCAACAUUCCGAGGGGACCGCCCCCUCAGUAAUGGCGAAUGGGACCCA [U60C G67A] ?
## Result 0.776

## Task So what does the record say about self-cleavage for GGCCGUCAUGGCCCCAGCCUCCUCGCUGGCGCCGGCUGGGCAACAUUCCGAGGGGACCGUCCCCUCGGUAAUGGCGAAUGGGACCCA [G6U U12C] ?
## Result 0.0573

## Task So what does the record say about self-cleavage for GGCCGGCAUGGUCCCAGCCUCCUCGCUGGCGCCGGCUGGGCAACAUUCCUAGGGGACCGUCCCCUCGGUGAUGGCGAAUGGGACCCA [G50U A70G] ?
## Result 0.846
